target: NMDA receptor (N-methyl-D-aspartate-specific L-[3H]glutamate recognition site in synaptic plasma membranes); test: NMDA-Selective Glutamate Binding Assay, L-[3H]glutamate; conditions: 12.5 nM L-[3H]glutamate, pH 7.4, 0-4 °C, 10 min; read-out: [3H]GLU Ki
recorded_endpoint: Ki (µM)
Numbers only, in µM.

Could you tell me which Ki is on file for O=C(O)c1nc2cccc(CP(=O)(O)O)c2[nH]1 ?
1.6
